Every entry's value here was drawn from patent US20240217951A1.

- assayed-system: PCSK9 (Homo sapiens, UniProt Q8NBP7, G670E/V474I)
- Sequence (Q8NBP7 with tags, fused parts or gaps V474I/G670E): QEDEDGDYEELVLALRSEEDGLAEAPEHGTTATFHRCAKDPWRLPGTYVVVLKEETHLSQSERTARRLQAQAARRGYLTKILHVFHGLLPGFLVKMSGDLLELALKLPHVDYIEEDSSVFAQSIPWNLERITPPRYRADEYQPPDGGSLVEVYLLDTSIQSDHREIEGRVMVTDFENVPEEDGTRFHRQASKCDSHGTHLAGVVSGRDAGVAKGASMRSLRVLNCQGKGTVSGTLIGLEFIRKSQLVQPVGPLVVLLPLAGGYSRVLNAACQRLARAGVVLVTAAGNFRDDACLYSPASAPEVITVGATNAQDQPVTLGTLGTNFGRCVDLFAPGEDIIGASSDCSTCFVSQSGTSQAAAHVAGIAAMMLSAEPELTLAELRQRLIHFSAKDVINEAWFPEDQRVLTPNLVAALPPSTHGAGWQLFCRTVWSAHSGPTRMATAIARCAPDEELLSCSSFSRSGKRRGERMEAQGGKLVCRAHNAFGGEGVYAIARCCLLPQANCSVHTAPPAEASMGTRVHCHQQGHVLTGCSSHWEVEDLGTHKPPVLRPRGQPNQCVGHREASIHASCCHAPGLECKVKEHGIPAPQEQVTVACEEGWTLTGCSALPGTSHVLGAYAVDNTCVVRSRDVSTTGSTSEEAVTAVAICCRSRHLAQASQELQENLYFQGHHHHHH
- test-protocol: biochemical
Listed here: items and their measured IC50.
Report as a plain number; the unit nM is understood.

smiles_representation=Cc1ncc(N[C@H]2CC[C@H](Nc3ccc(-n4cccc(C)c4=O)cn3)C2)nc1C unit_annotation=nM readout_value=17
smiles_representation=Cc1ncc(N[C@H]2CC[C@H](Nc3ccc(-n4c(=O)ccc5cccnc54)cn3)C2)nc1C unit_annotation=nM readout_value=17
smiles_representation=Cc1ncc(N[C@H]2CC[C@H](Nc3ccc(-n4ccccc4=O)cn3)C2)nc1C unit_annotation=nM readout_value=112
smiles_representation=O=c1ccc(Cl)cn1-c1ccc(N[C@H]2CC[C@H](Nc3cnc(Cl)cn3)C2)nc1 unit_annotation=nM readout_value=14
smiles_representation=O=C(O)c1ccc(=O)n(-c2ccc(N[C@H]3CC[C@H](Nc4cnc(Cl)cn4)C3)nc2)c1 unit_annotation=nM readout_value=12
smiles_representation=O=c1ccccn1-c1ccc(N[C@H]2CC[C@H](Nc3cnc(OC(F)(F)F)cn3)C2)nc1 unit_annotation=nM readout_value=149

Prompt: State recorded IC50 with PCSK9 (Homo sapiens, UniProt Q8NBP7, G670E/V474I), entry Cc1nc(N[C@H]2CC[C@H](Nc3ccc(-n4ccccc4=O)cn3)C2)cnc1Cl , no comment.
Response: 85

Prompt: State recorded IC50 with PCSK9 (Homo sapiens, UniProt Q8NBP7, G670E/V474I), entry CN1CC(=O)N(c2ccc(N[C@H]3CC[C@H](Nc4cnc(OC(F)F)cn4)C3)nc2)C1=O , no comment.
Response: 87

Prompt: State recorded IC50 with PCSK9 (Homo sapiens, UniProt Q8NBP7, G670E/V474I), entry COc1cccn(-c2ccc(N[C@H]3CC[C@H](Nc4cnc(C)c(C)n4)C3)nc2)c1=O , no comment.
Response: 13

Prompt: State recorded IC50 with PCSK9 (Homo sapiens, UniProt Q8NBP7, G670E/V474I), entry Cc1nc(N[C@H]2CC[C@H](Nc3cnc(OC(F)F)cn3)C2)ccc1-n1ccccc1=O , no comment.
Response: 63
